Sourced from paper PMC10397247

interaction score values for the binders below.
- testTarget: T1, 4H485-AA
- T1 chain: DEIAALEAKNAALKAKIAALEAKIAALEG
- measurementProtocol: two-hybrid library CCmax;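 further: natural log of median RNA to DNA barcode read ratio; higher means stronger binding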
- conditionLabel: mean of both orientations
Please respond with just the number, no unit label.

Check out these entries, answers already filled in.
binder | interaction score
DKNAALKAENAALEAKIAALKAEIAALEG [4H3753-AA] | 1.4
DKIAALEAENAALKAKIAALEAEIAALKG [4H2274-AA] | -0.34
DKIAALKAEIAALKAENAALKAEIAALEG [4H2649-AA] | -1.19
DKIAALEAEIAALEAKNAALKAKIAALEG [4H2109-AA] | -0.723
DEIAALEAENAALEAKIAALKAKIAALKG [4H174-AA] | 1.94
DKNAALEAKIAALKAENAALEAEIAALKG [4H3410-AA] | -0.0439
DKIAALEAKIAALEAENAALKAEIAALKG [4H2330-AA] | -1.35
DKIAALKAKIAALEAKNAALEAEIAALEG [4H2865-AA] | -1.28
DENAALEAEIAALKAKNAALEAKIAALKG [4H1142-AA] | -0.612
DENAALKAEIAALEAKIAALKAENAALEG [4H1579-AA] | -0.986

--- query ---
IN: # input binder: DENAALKAKIAALKAEIAALEAKNAALKG [4H1864-AA] ; wanted: its interaction score
OUT: -0.878
